Attribution: patent US5726162A

- Tested on: fungal inoculum
- protocol-summary: organism not typed
- Format: cell-based
- condition: read-out: % growth inhibition
Recorded inhibition at 100 ppm by entry
# number only, unit % dropped from output

# compound, measured-number
data = [
    ("CC#CCN1N=C(c2cccc(Cl)c2)CCC1=O [Compound 37]", 100),
    ("COc1ccc(C2=NN(CCCO)C(=O)CC2)cc1 [Compound 2]", 0),
    ("CC#CCN1N=C(c2ccccc2)CCC1=O [Compound 9]", 94.4),
    ("CC#CCN1N=C(c2ccc(Cl)cc2Cl)CCC1=O [Compound 19]", 96.8),
    ("CCC(O)CN1N=C(c2ccc(Cl)c(Cl)c2)CCC1=O (centres unmarked) [Compound 3]", 53.6),
]

Recorded inhibition at 100 ppm of CC#CCN1N=C(c2ccc(Oc3ccccc3)cc2)CCC1=O [Compound 33] , please.
27.6

Next compound up: CC=CCN1N=C(c2ccc(Cl)cc2)CCC1=O [Compound 8]
96.2

Next compound up: CCC#CCC1(CC#CCC)c2cc(Cl)ccc2-c2n[nH]c(=O)cc21 [Compound 151]
80.6

Next compound up: CC#CC(C)N1N=C(c2ccc(Cl)cc2)CCC1=O (centres unmarked) [Compound 22]
99.7

Next compound up: CC(C)=CCN1N=C(c2ccc(Cl)cc2)CCC1=O [Compound 32]
100

Next compound up: CC(C)(C)C#CCN1N=C(c2ccc(Cl)cc2)CCC1=O [Compound 46]
100
